assay target: UniProt:Q92993
experiment summary: KAT-5 biochemical inhibition assay (SAMDI mass spectrometry)
pIC50: −log10 of the molar value.
Please respond with reported pIC50 for every item in the list.

Q. Data request, read-out pIC50, for O=C(NNS(=O)(=O)CC1CCOCC1)c1cc(-n2cncn2)cc(Cl)c1F
A. 4.30 to 5.00

Q. One more compound: Cn1cnc(-c2cc(Cl)c(F)c(C(=O)NNS(=O)(=O)CC3CCCN(C(=O)C4CCOCC4)C3)c2)c1 (stereo not shown)
A. > 5.00

Q. One more compound: Cc1cn(-c2cc(Cl)c(F)c(C(=O)NNS(=O)(=O)CC3CCOCC3)c2)nn1
A. > 5.00

Q. One more compound: CNC(=O)NC1CCC(CS(=O)(=O)NNC(=O)c2cc(-c3cn(C)cn3)cc(Cl)c2F)C1 (stereo not shown)
A. > 5.00

###

assay target: KAT-6A (Homo sapiens (Human), UniProt Q92794)
Sequence (Q92794 other isoform, or with tags, fused parts or gaps): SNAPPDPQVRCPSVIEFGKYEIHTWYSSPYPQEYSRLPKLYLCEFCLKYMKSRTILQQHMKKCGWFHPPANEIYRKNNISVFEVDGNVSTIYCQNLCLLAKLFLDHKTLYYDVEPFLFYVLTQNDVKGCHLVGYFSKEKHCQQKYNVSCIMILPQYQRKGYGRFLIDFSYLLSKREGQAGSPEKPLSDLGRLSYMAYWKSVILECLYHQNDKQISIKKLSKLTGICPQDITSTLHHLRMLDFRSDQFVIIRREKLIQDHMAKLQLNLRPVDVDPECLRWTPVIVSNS
experiment summary: KAT-6A biochemical inhibition assay (SAMDI mass spectrometry)
pIC50: −log10 of the molar value.
Please respond with reported pIC50 for every item in the list.

Q. Data request, read-out pIC50, for Cn1cnc(-c2cc(Cl)c(F)c(C(=O)NNS(=O)(=O)CC3CCN(C(=O)NCCO)C3)c2)c1 (stereo not shown) [Compound I-228]
A. 4.30 to 5.00

Q. One more molecule: Cn1cnc(-c2cc(Cl)c(F)c(C(=O)NNS(=O)(=O)C[C@H]3CCC[C@H](NC(=O)OC(C)(C)C)C3)c2)c1 [Compound I-350]
A. > 5.00

Q. One more molecule: CNC(=S)N1CC[C@@H](CS(=O)(=O)NNC(=O)c2cc(-c3cn(C)cn3)cc(Cl)c2F)C1 [Compound I-183]
A. > 5.00

Q. One more molecule: COCCc1nc(-c2cc(Cl)c(F)c(C(=O)NNS(=O)(=O)CC3CCCCC3)c2)cn1C [Compound I-192]
A. 4.30 to 5.00

###

Please respond with reported pIC50 for every item in the list.
assay target: KAT-8 (Homo sapiens (Human), UniProt Q9H7Z6)
Sequence (Q9H7Z6 other isoform, or with tags, fused parts or gaps): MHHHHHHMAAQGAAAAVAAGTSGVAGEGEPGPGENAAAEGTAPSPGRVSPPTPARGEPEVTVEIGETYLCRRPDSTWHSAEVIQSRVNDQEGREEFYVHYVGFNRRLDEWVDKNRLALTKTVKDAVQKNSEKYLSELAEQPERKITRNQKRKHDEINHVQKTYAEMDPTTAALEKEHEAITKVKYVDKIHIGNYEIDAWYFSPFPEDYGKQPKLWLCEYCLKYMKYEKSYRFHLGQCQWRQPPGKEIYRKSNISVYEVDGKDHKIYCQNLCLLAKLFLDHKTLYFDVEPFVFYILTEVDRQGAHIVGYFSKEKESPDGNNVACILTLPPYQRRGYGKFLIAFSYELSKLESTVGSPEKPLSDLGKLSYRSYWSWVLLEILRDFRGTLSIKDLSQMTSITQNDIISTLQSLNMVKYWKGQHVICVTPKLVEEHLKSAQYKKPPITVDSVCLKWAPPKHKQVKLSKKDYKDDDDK
experiment summary: KAT-8 biochemical inhibition assay (SAMDI mass spectrometry)
settings: Table 6, comparative compounds
pIC50: −log10 of the molar value.

Q. Given the entry O=C(NNS(=O)(=O)CC1CCCNC1)c1cc(-c2ccccc2)cc(Cl)c1F (stereo not shown) [A, reference compound] , what pIC50 was observed with KAT-8 (Homo sapiens (Human), UniProt Q9H7Z6)?
A. < 4.00

Q. One more compound: Cc1cc(-c2ccccc2)cc(C(=O)NNS(=O)(=O)CC2CCCN(C(=O)OC(C)(C)C)C2)c1F (single isomer, unassigned) [B, reference compound]
A. 4.00 to 4.30

Q. One more compound: Cc1cc(-c2ccccc2)cc(C(=O)NNS(=O)(=O)CC2CCCNC2)c1F (stereo not shown) [D, reference compound]
A. < 4.00

Q. One more compound: Cc1cc(-c2ccccc2)cc(C(=O)NNS(=O)(=O)CC2CCCN(C(=O)OC(C)(C)C)C2)c1F (single isomer, unassigned) [C, reference compound]
A. < 4.00

###

assay target: KAT-7 (Homo sapiens (Human))
Sequence (O95251 other isoform, or with tags, fused parts or gaps): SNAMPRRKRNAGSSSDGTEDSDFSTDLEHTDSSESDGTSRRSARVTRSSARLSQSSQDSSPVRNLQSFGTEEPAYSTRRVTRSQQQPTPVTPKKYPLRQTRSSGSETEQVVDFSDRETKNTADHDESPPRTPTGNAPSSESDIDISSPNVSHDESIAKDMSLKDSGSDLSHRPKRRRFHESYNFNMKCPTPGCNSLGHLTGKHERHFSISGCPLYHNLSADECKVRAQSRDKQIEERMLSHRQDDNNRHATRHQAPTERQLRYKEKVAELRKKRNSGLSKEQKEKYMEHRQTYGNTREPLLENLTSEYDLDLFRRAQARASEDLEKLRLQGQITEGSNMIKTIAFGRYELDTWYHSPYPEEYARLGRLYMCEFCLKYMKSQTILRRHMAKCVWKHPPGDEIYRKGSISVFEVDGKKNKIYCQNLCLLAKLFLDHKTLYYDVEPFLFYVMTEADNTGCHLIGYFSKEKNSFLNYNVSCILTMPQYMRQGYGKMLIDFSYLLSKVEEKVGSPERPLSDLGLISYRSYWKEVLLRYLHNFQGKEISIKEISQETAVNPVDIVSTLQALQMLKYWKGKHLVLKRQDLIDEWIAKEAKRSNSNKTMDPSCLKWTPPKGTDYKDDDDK
experiment summary: KAT-7 biochemical inhibition assay (SAMDI mass spectrometry)
settings: Table 5
Please respond with reported IC50 for every item in the list.

Q. Data request, read-out IC50, for Cc1cccc(-c2cc(Cl)c(F)c(C(=O)NNS(=O)(=O)CC3CNCCN3)c2)c1 (centres unmarked) [Compound A-15]
A. ≤ 10 µM

Q. One more compound: Cc1cccc(-c2cc(Cl)c(F)c(C(=O)NNS(=O)(=O)C(C)C3CCCNC3)c2)c1 (centres unmarked) [Compound A-25]
A. 10 to 50 µM

Q. One more compound: COCc1cc(Cl)c(F)c(C(=O)NNS(=O)(=O)c2cccc(O)c2)c1 [Compound A-30]
A. ≤ 10 µM

Q. One more compound: Cc1cccc(-c2cc(Cl)c(F)c(C(=O)NNS(=O)(=O)CC3CN(C)CCN3C)c2)c1 (centres unmarked) [Compound A-17]
A. ≤ 10 µM

Q. One more compound: Cc1cccc(-c2cc(Cl)c(F)c(C(=O)NNS(=O)(=O)CC3CN(C)CCN3)c2)c1 (centres unmarked) [Compound A-24]
A. ≤ 10 µM

Q. One more compound: Cc1cccc(-c2cc(Cl)c(F)c(C(=O)NNS(=O)(=O)C3CCC(NC(=O)OC(C)(C)C)C3)c2)c1 (centres unmarked) [Compound A-19]
A. ≤ 10 µM

Q. One more compound: Cc1cccc(-c2cc(Cl)c(F)c(C(=O)NNS(=O)(=O)C3CCC(N)C3)c2)c1 (centres unmarked) [Compound A-20]
A. 10 to 50 µM

Q. One more compound: O=C(NNS(=O)(=O)c1cccc(O)c1)c1cc(-c2ccccc2)cc(F)c1F [Compound A-29]
A. ≤ 1 µM

###

assay target: KAT-6A (Homo sapiens (Human))
experiment summary: KAT-6A biochemical inhibition assay (SAMDI mass spectrometry)
Please respond with reported IC50 for every item in the list.

Q. Data request, read-out IC50, for CC(=O)N[C@H]1C[C@@H](CS(=O)(=O)NNC(=O)c2cc(-c3cn(C)cn3)cc(Cl)c2F)C1 [Compound I-116]
A. < 10 µM

Q. One more compound: CC(=O)N[C@H]1C[C@H](CS(=O)(=O)NNC(=O)c2cc(-c3cn(C)cn3)cc(Cl)c2F)C1 [Compound I-125]
A. 10 to 50 µM

Q. One more compound: CN(C)C(=O)N[C@H]1C[C@H](CS(=O)(=O)NNC(=O)c2cc(-c3cn(C)cn3)cc(Cl)c2F)C1 [Compound I-180]
A. < 10 µM

Q. One more compound: O=C(NNS(=O)(=O)CC1CCCCC1)c1cc(-n2ccnc2)cc(Cl)c1F [Compound I-44]
A. > 100 µM

Q. One more compound: Cn1cnc(-c2cc(Cl)c(F)c(C(=O)NNS(=O)(=O)c3c(F)cccc3F)c2)c1 [Compound I-378]
A. < 10 µM

Q. One more compound: CO[C@@H]1CCCC[C@@H]1CS(=O)(=O)NNC(=O)c1cc(-c2cn(C)cn2)cc(Cl)c1F [Compound I-435]
A. < 10 µM

Q. One more compound: Cn1cnc(-c2cc(F)c(F)c(C(=O)NNS(=O)(=O)CC3CCOCC3)c2)c1 [Compound I-150]
A. 10 to 50 µM

Q. One more compound: CC(=O)N1C[C@H](CS(=O)(=O)NNC(=O)c2cc(-c3cn(C)cn3)cc(Cl)c2F)[C@@H](C)C1 [Compound I-283]
A. 10 to 50 µM

Q. One more compound: Cn1cnc(-c2cc(Cl)c(F)c(C(=O)NNS(C)(=O)=O)c2)c1 [Compound I-22]
A. 10 to 50 µM

Q. One more compound: CNC1CCCC(CS(=O)(=O)NNC(=O)c2cc(-c3cn(C)cn3)cc(Cl)c2F)C1 (stereo not drawn) [Compound I-280]
A. 10 to 50 µM

Q. One more compound: Cc1ncc(-c2cc(Cl)c(F)c(C(=O)NNS(=O)(=O)CC3CCOCC3)c2)n1C [Compound I-30]
A. > 100 µM

Q. One more compound: Cn1cnc(-c2cc(Cl)c(F)c(C(=O)NNS(=O)(=O)CC3CCCC(NC(=O)c4cccnc4)C3)c2)c1 (stereo not drawn) [Compound I-236]
A. < 10 µM

Q. One more compound: CNC1CC(CS(=O)(=O)NNC(=O)c2cc(-c3cn(C)cn3)cc(Cl)c2F)C1 (stereo not drawn) [Compound I-395]
A. 10 to 50 µM

Q. One more compound: Cn1cnc(-c2cc(Cl)c(F)c(C(=O)NNS(=O)(=O)CC3CCCCC3)c2)c1 [Compound I-51]
A. < 10 µM

Q. One more compound: CCN(C)C(=O)NC1CCC(CS(=O)(=O)NNC(=O)c2cc(-c3cn(C)cn3)cc(Cl)c2F)C1 (stereo not drawn) [Compound I-291]
A. 10 to 50 µM

###

assay target: KAT-5 (Homo sapiens (Human), UniProt Q92993)
Sequence (Q92993 other isoform, or with tags, fused parts or gaps): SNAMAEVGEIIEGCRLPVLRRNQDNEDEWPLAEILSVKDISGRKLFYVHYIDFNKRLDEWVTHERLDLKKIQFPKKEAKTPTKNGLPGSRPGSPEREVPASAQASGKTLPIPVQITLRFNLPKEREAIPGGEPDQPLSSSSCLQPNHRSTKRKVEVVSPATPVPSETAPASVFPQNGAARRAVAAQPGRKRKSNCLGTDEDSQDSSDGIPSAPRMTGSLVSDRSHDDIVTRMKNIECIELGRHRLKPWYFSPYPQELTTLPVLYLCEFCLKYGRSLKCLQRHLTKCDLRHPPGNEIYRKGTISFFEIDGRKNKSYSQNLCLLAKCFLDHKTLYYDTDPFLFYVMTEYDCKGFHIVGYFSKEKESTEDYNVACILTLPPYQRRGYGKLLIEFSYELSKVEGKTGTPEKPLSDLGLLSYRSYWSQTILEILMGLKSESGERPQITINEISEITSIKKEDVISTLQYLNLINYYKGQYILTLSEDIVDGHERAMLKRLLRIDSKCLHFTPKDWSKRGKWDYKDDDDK
experiment summary: KAT-5 biochemical inhibition assay (SAMDI mass spectrometry)
Experimental: KAT-5. Enzyme assay buffer was 50 mM Tris pH 8.0, 0.002% Tween20, 0.005% bovine skin gelatin, and 1 mM dithiothreitol (DTT). For determination of IC50 values, compounds were serially diluted with 2% (v/v) DMSO in the final reaction, pre-incubating each dilution of each compound with 40 μL of assay buffer containing KAT-5 enzyme (9 nM final concentration). 10 μL of assay buffer containing 1 μM peptide substrate and 0.5 μM acetyl coenzyme A (final concentrations) was added. […]
readout name: IC50

Q. Data request, read-out IC50, for CNC1CC(CS(=O)(=O)NNC(=O)c2cc(-c3cn(C)cn3)cc(Cl)c2F)C1 (stereo not shown)
A. 10 to 50 µM

Q. One more compound: Cn1cnc(-c2cc(Cl)c(F)c(C(=O)NNS(=O)(=O)C[C@H]3CCC[C@H](O)C3)c2)c1
A. < 10 µM

Q. One more compound: Cn1cnc(-c2cc(Cl)c(F)c(C(=O)NNS(=O)(=O)CC34CC5CC(CC(C5)C3)C4)c2)c1
A. < 10 µM

Q. One more compound: Cn1cnc(-c2cc(Cl)c(F)c(C(=O)NNS(=O)(=O)C[C@H]3CCC[C@@H](N)C3)c2)c1
A. 10 to 50 µM
